Assay: Mouse PK test: plasma concentration after intravenous or oral administration
Type: in vivo, mice (C57BL/6J)
Settings: C57BL/6J, plasma, male mice, intravenous administration, 1 mg/kg, read-out: CL
Non-standard residues stand in square brackets, D forms with d. Residues, ends and D or L forms follow the SMILES beside them. *: point of attachment. NMeF = CN[C@@H](Cc1ccccc1)C(=O)O; NMeT = CN[C@H](C(=O)O)[C@@H](C)O; NMeL = CN[C@@H](CC(C)C)C(=O)O; NMeV = CN[C@H](C(=O)O)C(C)C; d(β3hA) = C[C@@H](N)CC(=O)O; NMeAbu = CC[C@H](NC)C(=O)O; Abu = CC[C@H](N)C(=O)O; tBu = CC(C)(C)*
Parameter: clearance. Scope: all listed entries.
Answer format: numeric, L/h/kg implied, no suffix.

compound="CC[C@H](C)[C@@H]1NC(=O)[C@H](CC(C)C)N(C)C(=O)C[C@@H](C)NC(=O)[C@H](C(C)C)N(C)C(=O)[C@H](COC(C)(C)C)NC(=O)[C@H](CC)N(C)C(=O)[C@H](Cc2ccccc2)N(C)C(=O)[C@H](CC(C)C)NC(=O)[C@@H]2CCCN2C(=O)[C@H]([C@@H](C)O)N(C)C(=O)[C@H](CC(C)C)N(C)C(=O)[C@H](CC)N(C)C(=O)[C@H](C(C)C)NC(=O)[C@H](CC(C)C)N(C)C1=O [pd057] (cyclo(I[NMeL]V[NMeAbu][NMeL][NMeT]PL[NMeF][NMeAbu]S(tBu)[NMeV][d(β3hA)][NMeL]))" metric=clearance readout_value=0.84

Could you tell me which clearance is on file for CC[C@@H]1NC(=O)[C@H](CC(C)C)N(C)C(=O)[C@H]([C@@H](C)CC)NC(=O)[C@H](CC(C)C)N(C)C(=O)C[C@@H](C)NC(=O)[C@H](C(C)C)N(C)C(=O)[C@H](CC(C)C)NC(=O)[C@H](CC)N(C)C(=O)[C@H](Cc2ccccc2)N(C)C(=O)[C@@H]2CCCN2C(=O)[C@H](CC(C)C)NC(=O)[C@H]([C@@H](C)O)N(C)C(=O)[C@H](CC(C)C)N(C)C1=O [pd135] (cyclo([Abu][NMeL][NMeT]LP[NMeF][NMeAbu]L[NMeV][d(β3hA)][NMeL]I[NMeL])) ? 0.102

---

Assay: Membrane permeability test using Caco-2 cells with preincubation
Type: in vitro ADME
Details: Caco-2; preincubation 20 to 24 hours; Apical FaSSIF/HBSS pH 6.0, Basal HBSS 4% BSA pH 7.4; 180 minutes; read-out: Caco2 Papp
Non-standard residues stand in square brackets, D forms with d. Residues, ends and D or L forms follow the SMILES beside them. *: point of attachment. NMeF = CN[C@@H](Cc1ccccc1)C(=O)O; NMeL = CN[C@@H](CC(C)C)C(=O)O; NMeV = CN[C@H](C(=O)O)C(C)C; d(β3hA) = C[C@@H](N)CC(=O)O; NMeA = CN[C@@H](C)C(=O)O; dNMeA = CN[C@H](C)C(=O)O; tBu = CC(C)(C)*
Metric: Papp A→B (×10⁻⁶ cm/s)
Quick note: give the figure in ×10⁻⁶ cm/s, leave out the unit.

Would you kindly share the measured Papp A→B for CC[C@H](C)[C@@H]1NC(=O)[C@H](Cc2ccccc2)N(C)C(=O)[C@H](C(C)C)NC(=O)[C@@H](C)N(C)C(=O)C[C@@H](C)NC(=O)[C@H](C(C)C)N(C)C(=O)[C@H](Cc2ccccc2)N(C)C(=O)[C@H](COC(C)(C)C)NC(=O)[C@H](CC(C)C)N(C)C(=O)[C@H](C)N(C)C(=O)[C@@H]2CCCN2C(=O)[C@H]([C@@H](C)O)NC(=O)[C@H](CC(C)C)N(C)C1=O [pd130] (cyclo(I[NMeL]TP[NMeA][NMeL]S(tBu)[NMeF][NMeV][d(β3hA)][dNMeA]V[NMeF])) ? 3.88

---

microsomal CLint at 1 µM: recorded values
Assay: Metabolic stability test: liver microsomal stability assay
Type: in vitro ADME, mouse
Conditions: male, pH 7.4; mouse liver microsomes 0.5 mg protein/mL, compound 1 µM, presence of NADPH; read-out: Mouse Hepatic Microsome CLh,int NADPH(+)
Positions of bridges follow the written chain, without caps; N, C: chain ends. Non-standard residues stand in square brackets, D forms with d. Residues, ends and D or L forms follow the SMILES beside them. *: point of attachment. NMeF = CN[C@@H](Cc1ccccc1)C(=O)O; NMeI = CC[C@H](C)[C@H](NC)C(=O)O; NMeT = CN[C@H](C(=O)O)[C@@H](C)O; NMeD = CN[C@@H](CC(=O)O)C(=O)O; NMeL = CN[C@@H](CC(C)C)C(=O)O; NMeV = CN[C@H](C(=O)O)C(C)C; d(β3hA) = C[C@@H](N)CC(=O)O; NMeAbu = CC[C@H](NC)C(=O)O; NMeA = CN[C@@H](C)C(=O)O; Piperidide = C1CCN(*)CC1; tBu = CC(C)(C)*
Give your result in µL/min/mg as a bare value.

compound="CC[C@H](C)[C@@H]1NC(=O)[C@H](CC(C)C)N(C)C(=O)[C@H](CC(C)C)NC(=O)[C@H](C)N(C)C(=O)C[C@@H](C(=O)N2CCCCC2)N(C)C(=O)[C@H](C)N(C)C(=O)[C@H](CC(C)C)NC(=O)[C@H](C(C)C)N(C)C(=O)[C@H](CC(C)C)N(C)C(=O)CNC(=O)[C@H]([C@@H](C)CC)N(C)C(=O)[C@H](Cc2ccccc2)N(C)C(=O)[C@H](C)NC(=O)[C@H](Cc2ccccc2)N(C)C1=O [pd079] ([NMeA]L[NMeL]I[NMeF]A[NMeF][NMeI]G[NMeL][NMeV]L[NMeA][NMeD]-Piperidide; lactam N-14)" units_of_measure=µL/min/mg readout_value=26.1

Field request: microsomal CLint at 1 µM | item: CC[C@H](C)[C@@H]1NC(=O)[C@H](CC(C)C)N(C)C(=O)C[C@@H](C)NC(=O)[C@H](C(C)C)N(C)C(=O)[C@H](COC(C)(C)C)NC(=O)[C@H](CC)N(C)C(=O)[C@H](Cc2ccccc2)N(C)C(=O)[C@H](CC(C)C)NC(=O)[C@@H]2CCCN2C(=O)[C@H]([C@@H](C)O)N(C)C(=O)[C@H](CC(C)C)N(C)C(=O)[C@H](CC)N(C)C(=O)[C@H](C(C)C)NC(=O)[C@H](CC(C)C)N(C)C1=O [pd057] (cyclo(I[NMeL]V[NMeAbu][NMeL][NMeT]PL[NMeF][NMeAbu]S(tBu)[NMeV][d(β3hA)][NMeL])) 50.4

---

We begin with a simple list: items and their reported Caco2 Papp (10^-6 cm/sec).
Test system: Caco-2 cells
Assay: Membrane permeability test using Caco-2 cells with preincubation
Assay type: in vitro ADME
Conditions: Caco-2 cells, preincubation 20 to 24 hours; apical FaSSIF/HBSS 1% DMSO pH 6.0, basal HBSS 4% BSA pH 7.4; basal sample at 180 minutes
Starred links: 1 amine or outer side, 2 acyl side, 3 side chain; linkers in the order of their positions; H or OH if unused. Positions of bridges follow the written chain, without caps; N, C: chain ends. Non-standard residues stand in square brackets, D forms with d. Residues, ends and D or L forms follow the SMILES beside them. *: point of attachment. NMedβ3hAla = C[C@H](CC(=O)[*:2])N(C)[*:1]; NMeF = CN[C@@H](Cc1ccccc1)C(=O)O; NMeGABA = CN(CCCC(=O)[*:2])[*:1]; NMeI = CC[C@H](C)[C@H](NC)C(=O)O; NMeT = CN[C@H](C(=O)O)[C@@H](C)O; hPhe = N[C@@H](CCc1ccccc1)C(=O)O; NMeβAla = CN(CCC(=O)[*:2])[*:1]; NMeD = CN[C@@H](CC(=O)O)C(=O)O; NMeL = CN[C@@H](CC(C)C)C(=O)O; NMeV = CN[C@H](C(=O)O)C(C)C; d(β3hA) = C[C@@H](N)CC(=O)O; NMeAbu = CC[C@H](NC)C(=O)O; NMeA = CN[C@@H](C)C(=O)O; Piperidide = C1CCN(*)CC1; Abu = CC[C@H](N)C(=O)O; Sar = CNCC(=O)O; tBu = CC(C)(C)*

As a guide, the following entries are already answered.
compound="CC[C@@H]1NC(=O)[C@H](CC(C)C)N(C)C(=O)[C@H](C)NC(=O)[C@@H]2CCCN2C(=O)[C@H]([C@@H](C)CC)NC(=O)[C@H](CC(C)C)N(C)C(=O)[C@H](CCc2ccccc2)NC(=O)CCCN(C)C(=O)C[C@@H](C(=O)N2CCCCC2)NC(=O)[C@H](CC(C)C)N(C)C(=O)[C@H]([C@@H](C)CC)NC(=O)[C@H](C)N(C)C(=O)[C@H]([C@@H](C)O)NC(=O)[C@H](Cc2ccccc2)N(C)C1=O [pd023] ([NMeGABA][hPhe][NMeL]IPA[NMeL][Abu][NMeF]T[NMeA]I[NMeL]D-Piperidide; lactam N-14)" readout_value="0.03 10^-6 cm/sec"
compound="CC[C@H](C)[C@@H]1NC(=O)[C@H](C)N(C)C(=O)[C@H]([C@@H](C)O)N(C)C(=O)[C@H](CC(C)C)N(C)C(=O)[C@H]([C@@H](C)CC)NC(=O)[C@H](Cc2ccccc2)N(C)C(=O)[C@H](Cc2ccccc2)N(C)C(=O)[C@H](C)NC(=O)[C@H](COC(C)(C)C)NC(=O)[C@H](CC)N(C)C(=O)[C@H](C(C)C)NC(=O)CCCN(C)C(=O)C[C@@H](C)NC(=O)[C@H](C(C)C)N(C)C1=O [pd050] (cyclo(A[NMeF][NMeF]I[NMeL][NMeT][NMeA]I[NMeV][d(β3hA)][NMeGABA]V[NMeAbu]S(tBu)))" readout_value="0.54 10^-6 cm/sec"
compound="CC[C@@H]1NC(=O)[C@H](Cc2ccccc2)N(C)C(=O)[C@@H]2CCCN2C(=O)[C@H](CC(C)C)N(C)C(=O)[C@H](CC)NC(=O)[C@H](C(C)C)NC(=O)[C@H](CC(C)C)N(C)C(=O)[C@H]([C@@H](C)O)NC(=O)[C@H](Cc2ccccc2)N(C)C(=O)CN(C)C(=O)C[C@@H](C)N(C)C(=O)[C@H](C(C)C)NC(=O)[C@H](CC)N(C)C(=O)[C@H](C)N(C)C1=O [pd070] (cyclo([Abu][NMeA][NMeAbu]V[NMedβ3hAla][Sar][NMeF]T[NMeL]V[Abu][NMeL]P[NMeF]))" readout_value="0.03 10^-6 cm/sec"
compound="CC[C@@H]1NC(=O)[C@H](C)N(C)C(=O)[C@H](C(C)C)N(C)C(=O)[C@H]([C@@H](C)CC)NC(=O)[C@H](C)N(C)C(=O)CCCN(C)C(=O)C[C@@H](C)NC(=O)[C@H](C(C)C)N(C)C(=O)[C@H](CCc2ccccc2)NC(=O)CCN(C)C(=O)[C@H]([C@@H](C)O)N(C)C(=O)[C@H](CC(C)C)N(C)C(=O)[C@H]([C@@H](C)CC)NC(=O)[C@H](Cc2ccccc2)N(C)C1=O [pd055] (cyclo([Abu][NMeF]I[NMeL][NMeT][NMeβAla][hPhe][NMeV][d(β3hA)][NMeGABA][NMeA]I[NMeV][NMeA]))" readout_value="0.12 10^-6 cm/sec"

Tell me reported Caco2 Papp (10^-6 cm/sec) for CC[C@H](C)[C@@H]1NC(=O)[C@H]([C@@H](C)CC)N(C)C(=O)[C@@H](C)NC(=O)C[C@@H](C(=O)N2CCCCC2)N(C)C(=O)[C@H](Cc2ccccc2)N(C)C(=O)[C@H](C(C)C)NC(=O)[C@H](C)N(C)C(=O)[C@H](CC(C)C)N(C)C(=O)[C@H](C)NC(=O)CN(C)C(=O)[C@H](CC(C)C)N(C)C(=O)[C@H](C)N(C)C(=O)[C@H](Cc2ccccc2)N(C)C1=O [pd153] ([dA][NMeI]I[NMeF][NMeA][NMeL][Sar]A[NMeL][NMeA]V[NMeF][NMeD]-Piperidide; lactam N-13) , tested with Caco-2 cells. 0.20 10^-6 cm/sec

Provide value of Caco2 Papp (10^-6 cm/sec) for this record tested with Caco-2 cells: CC[C@H](C)[C@@H]1NC(=O)[C@H](C)N(C)C(=O)C[C@@H](C(=O)N2CCCCC2)NC(=O)[C@H](CC)N(C)C(=O)[C@H](COC(C)(C)C)NC(=O)[C@H](CC(C)C)N(C)C(=O)[C@H](C)N(C)C(=O)[C@H](CC(C)C)N(C)C(=O)[C@H](Cc2ccccc2)N(C)C(=O)CN(C)C(=O)[C@H]([C@@H](C)O)NC(=O)[C@H](CC(C)C)N(C)C(=O)[C@H](C(C)C)N(C)C(=O)[C@H](Cc2ccccc2)N(C)C1=O [pd004] ([NMeA]I[NMeF][NMeV][NMeL]T[Sar][NMeF][NMeL][NMeA][NMeL]S(tBu)[NMeAbu]D-Piperidide; lactam N-14) 0.82 10^-6 cm/sec

What value of Caco2 Papp (10^-6 cm/sec) on Caco-2 cells does CC[C@H](C)[C@H]1C(=O)N[C@@H](Cc2ccccc2)C(=O)N2CCC[C@H]2C(=O)N(C)[C@@H](CC(C)C)C(=O)N[C@@H](COC(C)(C)C)C(=O)N(C)[C@@H](Cc2ccccc2)C(=O)N[C@@H]([C@@H](C)O)C(=O)N(C)[C@@H](CC)C(=O)N2CCC[C@H]2C(=O)N(C)[C@@H](CC(C)C)C(=O)N[C@@H](C(C)C)C(=O)N[C@H](C(=O)N2CCCCC2)CC(=O)N(C)CCCC(=O)N(C)[C@@H](CC(C)C)C(=O)N1C [pd042] ([NMeGABA][NMeL][NMeI]FP[NMeL]S(tBu)[NMeF]T[NMeAbu]P[NMeL]VD-Piperidide; lactam N-14) have? 0.59 10^-6 cm/sec

What measured Caco2 Papp (10^-6 cm/sec) is associated with CC[C@@H]1NC(=O)[C@H](C)N(C)C(=O)[C@H](CC(C)C)N(C)C(=O)[C@H]([C@@H](C)O)N(C)C(=O)[C@H](CC(C)C)N(C)C(=O)[C@H](C)NC(=O)[C@H](Cc2ccccc2)N(C)C(=O)CN(C)C(=O)C[C@@H](C(=O)N2CCCCC2)NC(=O)[C@H](C(C)C)N(C)C(=O)[C@H](C)NC(=O)[C@@H]2CCCN2C(=O)[C@H](C(C)C)NC(=O)[C@H](Cc2ccccc2)N(C)C1=O [pd046] ([Sar][NMeF]A[NMeL][NMeT][NMeL][NMeA][Abu][NMeF]VPA[NMeV]D-Piperidide; lactam N-14) on Caco-2 cells? 0.06 10^-6 cm/sec
